- tgt: FXR (Homo sapiens (Human))
- Sequence (Q96RI1 262-486): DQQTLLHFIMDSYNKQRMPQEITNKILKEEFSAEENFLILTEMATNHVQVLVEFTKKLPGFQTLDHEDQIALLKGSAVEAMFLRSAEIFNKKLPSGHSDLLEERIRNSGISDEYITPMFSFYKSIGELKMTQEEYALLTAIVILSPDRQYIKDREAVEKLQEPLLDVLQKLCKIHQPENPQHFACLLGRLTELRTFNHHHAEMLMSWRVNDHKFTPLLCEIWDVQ
- experiment: FXR EC50 (FXR agonist potency reported with each Example)
- Format: cell-based
Mark TRUE only when EC50 stays strictly below 300 nM. Values equal to the cut-off are FALSE.

molecule="CC(C)c1noc(C23CCC(CN(C(=O)C45CC(F)(C4)C5)c4cccc(-c5nc(C6CC6)no5)c4)(CC2)CC3)n1 [Example 89]" group_label=TRUE
molecule="Cn1nc(C2CC2)cc1C12CCC(CN(C(=O)C34CC(F)(C3)C4)c3cncc(-c4nc(C5CC5)no4)c3)(CC1)CC2 [Example 205]" group_label=TRUE
molecule="O=C(N(CC12CCC(c3cnc(C(F)(F)F)nc3)(CC1)OC2)c1cccc(-c2noc(C(F)F)n2)c1)C12CC(F)(C1)C2 [Example 182]" group_label=FALSE
molecule="O=C(C1CCC(F)(F)C1)N(CC12CCC(c3nc(C4CC4)no3)(CC1)CC2)c1cccc(-c2cc(C3CC3)on2)c1 (stereo not shown) [Example 59]" group_label=TRUE
molecule="O=C(N(CC12CCC(c3nnc(C4CC4)o3)(CC1)CC2)c1cccc(-c2nc(C3CC3)no2)c1)C12CC(F)(C1)C2 [Example 137]" group_label=TRUE
molecule="CC(C)(C)CNC(=O)N(CC12CCC(c3nc(C4CC4)no3)(CC1)CC2)c1cccc(-c2nc(C3CC3)no2)c1 [Example 92]" group_label=FALSE
